# Test system: flow cell-grown P. aeruginosa PAO1 biofilms
# assay remarks: Peptide labeling of flow-grown biofilms by CLSM
# Type: cell-based, Pseudomonas aeruginosa
# condition context: 24 h flow cell biofilms, 2 μM peptide, single slice at mid-height
measure name: Labeling pattern / localization within biofilms (CLSM)

                                  substance                    result
0                 ^aFITC-WWRRWWR [WR8-FITC]  penetrated into biofilms
1  (4Iph)(f)LPNSNHIKQGL-FITC^b [4Iphf-HN17-FITC]  penetrated into biofilms
2                ^aFITC-WWKKWWKK [WK8-FITC]  penetrated into biofilms
